Tested on: IL-6
Experiment: IL-6 assay (ELISA) in Ad5-wt-ER infected HAECT-1 cells (IL-1β induced)
Assay type: cell-based, human
Conditions: Homo sapiens, HAECT1
Method: After four hours, cells were washed with EBM-BSA and incubated overnight in the same medium. […] After two hours, cells were washed and incubated at 34° C. for 1 hour. […] Control (no ER infection) cells were processed as above without Ad5-wt-hERα virus infection. […] Luciferase was determined on a Wallac Victor^2 Luminometer (Gaithersburg, Md.) using 10 μl of lysate and mixing with 100 lμof Promega Luciferase Assay reagent. […]
pIC50: −log10 of the molar value.
Overview of recorded pIC50 for various compounds
readout.name: pIC50

{"columns": ["compound", "measurement.target", "measured"],
 "data": [
  ["CC[C@@H]1c2cccn2-c2ccc(F)cc2N1C(=O)c1cccc(O)c1 [127 (R)]", "IL-6", 7.21],
  ["CC[C@@H]1c2cccn2-c2cc(F)c(F)cc2N1S(=O)(=O)c1ccc(O)c(C)c1 [102 (R)]", "IL-6", 6.35],
  ["CC[C@@H]1c2cccn2-c2ccc(F)cc2N1C(=O)c1ccc(O)cc1O [121 (R)]", "IL-6", 8.80],
  ["CC[C@H]1c2cccn2-c2ccc(F)cc2N1C(=O)c1cccc(O)c1 [127 (S)]", "IL-6", 5.88],
  ["CC(C)(C)[C@@H]1c2cccn2-c2ccc(Br)cc2N1C(=O)c1cccc(O)c1 [115 (R)]", "IL-6", 6.19],
  ["CC(C)(C)C1c2cccn2-c2ccc(Br)cc2N1C(=O)c1ccc(O)cc1 (stereo not drawn)", "IL-6", 6.68],
  ["CC[C@H]1c2cccn2-c2ccc(Cl)cc2N1C(=O)c1ccc(O)cc1O [125 (S)]", "IL-6", 5.96],
  ["CCC1c2cccn2-c2ccc(Br)cc2N1C(=O)c1ccc(O)cc1 (stereo not drawn)", "IL-6", 6.43],
  ["C[C@@H]1c2cccn2-c2ccc(F)cc2N1C(=O)c1ccc(O)cc1 [123 (R)]", "IL-6", 7.64]
]}
